Test: chemical genetic growth profiling, strain panel (AID 1159580);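 note: tested at 20 µM; growth read once vehicle control cultures reached saturation at 30 °C; 1 = growth at the plate median or of vehicle wells; lower values mean less growth of the strain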
Conditions: S. cerevisiae deletion strains, growth OD, locus YNL271C, strain bni1, active compounds read low
The campaign covered roughly 5,500 compounds. About 2,000 (36%) were called active. Not shown: some 18% with an inconclusive outcome. Some of the results follow.
Provide the recorded normalized growth for the entries that follow.
Give bare numbers.

Consider the worked cases shown below.
INSERT INTO assay_data (compound, measured) VALUES
  ('CCCCCC1C(=O)CCC1CC(=O)OC (stereo unspecified)', 0.937),
  ('C=C1C2=CC(=O)O[C@@H](c3ccoc3)[C@]2(C)CCC1[C@@]1(C)C=CC(=O)C(C)(C)[C@@H]1CC(=O)OC (stereo partly specified)', 0.995),
  ('O=C(O)CCCOc1ccc(Cl)cc1Cl', 0.996);

// batch mode: one normalized growth value per listed entry
1. CC(=O)Nc1ccccc1
2. C=C1C2CC[C@@]3(C)[C@H](c4ccoc4)OC(=O)C[C@]13O[C@H]1CC(=O)C(C)(C)C(CC(=O)OC)[C@@]21C (stereo partly specified)
3. CC1=C2[C@H]3OC(=O)[C@@H](C)[C@@H]3CC[C@@]2(C)C=CC1=O
4. CC(=O)O[C@H]1CC[C@]2(C)C3C(=O)[C@@H](OC(C)=O)[C@@]4(C)C(C[C@@H]5O[C@]6(CCC(C)CO6)[C@@H](C)[C@@H]54)C3CC[C@H]2C1 (stereo partly specified)
5. NC(N)=NCCC[C@@H](NC(=O)[C@@H](N)Cc1ccc(O)cc1)C(=O)O
6. CN(C)CCOC(=O)C(c1ccccc1)C1(O)CCCC1 (stereo unspecified)
7. NC(N)=NCCCC(NC(=O)C(N)Cc1ccc(O)cc1)C(=O)O (stereo unspecified)

*A*
[0.995, 1, 1.02, 0.976, 1.01, 1.02, 1]

---

Assay: chemical genetic growth profiling, strain panel (AID 1159580);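 note: tested at 20 µM; growth read once vehicle control cultures reached saturation at 30 °C; 1 = growth at the plate median or of vehicle wells; lower values mean less growth of the strain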
Conditions: S. cerevisiae deletion strains, growth OD, locus YJL187C, strain SWE1 (second series)
The whole screen tested about 5,500 compounds, of which about 2,000 (36%) were called active. Inconclusive results (about 18%) are left out. No stated cut-off is given here; in the data, active means normalized growth mostly below about 0.91 (no sharp cut-off); inconclusive means no clear call, values can overlap the other calls; inactive means mostly above about 0.92. Some of the results follow.
Returns: one label drawn from active, inactive

INSERT INTO results (compound, class) VALUES
  ('NS(=O)(=O)c1cc2c(cc1Cl)NC(C1CC3C=CC1C3)NS2(=O)=O (centres undefined)', 'inactive'),
  ('CC(CCC(=O)O)[C@H]1CCC2C3C(C[C@H](O)[C@@]21C)[C@@]1(C)CC[C@@H](O)C[C@H]1C[C@H]3O (some centres undefined)', 'inactive'),
  ('COc1cc(S(C)=O)ccc1-c1nc2ncccc2[nH]1 (centres undefined)', 'inactive'),
  ('C[C@H](N)[C@H](O)c1ccccc1', 'inactive'),
  ('Nc1cc(-c2ccncc2)c[nH]c1=O', 'inactive'),
  ('Cc1cc(C)cc(OCC2CNC(=O)O2)c1 (centres undefined)', 'inactive'),
  ('O=C(O)Cc1cc(I)c(Oc2cc(I)c(O)c(I)c2)c(I)c1', 'inactive'),
  ('N[C@H](Cc1cc(I)c(Oc2ccc(O)c(I)c2)c(I)c1)C(=O)O', 'inactive');

*Q* Hi, do you know how `CN(C)C(=O)Nc1ccc(Cl)c(Cl)c1` came out in this test?
*A* inactive

*Q* Another compound: COC(=O)CCC(C)[C@H]1CCC2C3C(C[C@H](O)[C@@]21C)[C@@]1(C)CC[C@@H](O)C[C@H]1C[C@H]3O (some centres undefined)
*A* inactive

*Q* Another compound: `N#C/C(=C\c1cccc(O)c1)C(=O)O`
*A* inactive

*Q* Another compound: `CCN(CC)CCOC(=O)C(c1ccccc1)c1ccccc1`
*A* inactive

*Q* Another compound: `CC(=O)Nc1nnc(S(N)(=O)=O)s1`
*A* active

*Q* Another compound: C=C1C2CC[C@@]3(C)[C@H](c4ccoc4)OC(=O)C[C@]13O[C@H]1CC(O)C(C)(C)C(CC(=O)OC)[C@@]21C (some centres undefined)
*A* inactive

*Q* Another compound: `O=c1cc(-c2cc(O)c(O)c(O)c2)oc2cc(O)cc(O)c12`
*A* inactive

*Q* Another compound: NC(N)=NCCCC(NC(=O)C(N)Cc1ccc(O)cc1)C(=O)O (centres undefined)
*A* inactive
